Test system: K562
Test: cell viability relative to vehicle control; higher = less cytotoxic;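 further: after 48 h exposure read by CellTiter-Glo luminescence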
Conditions: 10 µM; SRSF2 genotype: SRSF2 wt/wt
Endpoint Label: cell viability (%)
Record the value in %, omitting the unit from your answer.

{"Compound": "CC[C@H]1CN2CC[C@H]1C[C@H]2[C@H](O)c1ccnc2ccc(OC)cc12 [Hydroquinine]", "Value Units": "%", "cell viability": 103}
{"Compound": "COc1ccc2c(c1)/C(=C/c1cnc[nH]1)C(=O)N2", "Value Units": "%", "cell viability": 88}
{"Compound": "COC(=O)C[C@](O)(CCC(C)(C)O)C(=O)O[C@@H]1C(OC)=C[C@]23CCCN2CCc2cc4c(cc2[C@H]13)OCO4 [Harringtonine]", "Value Units": "%", "cell viability": 20.6}
{"Compound": "C[N+]1(C)CCCC(OC(=O)C(O)(c2ccccc2)c2ccccc2)C1 (stereo unspecified) [mepenzolate bromide]", "Value Units": "%", "cell viability": 98.9}
{"Compound": "C#C[C@]1(O)C=C[C@H]2[C@@H]3CCC4=CC(=O)CC[C@@H]4[C@H]3CC[C@@]21CC [Gestodene]", "Value Units": "%", "cell viability": 95.4}
{"Compound": "CC(=O)O[C@@H]1[C@H]2[C@@H](OC(=O)Cc3ccccc3)[C@@H](C)C[C@]2(OC(C)=O)C(=O)/C(C)=C/[C@@H]2[C@H](CC[C@]13CO3)C2(C)C [Euphorbia factor L1]", "Value Units": "%", "cell viability": 100}

Request: Given the compound O=C(O)C(=O)c1cn(Cc2ccccc2)c2ccc(-c3ccc(OC(F)(F)F)cc3)cc12 [Tiplaxtinin (PAI-039)] , what is its reported cell viability?
Result: 90.3

Request: Requested read-out: cell viability. Entry: O=[N+]([O-])c1ncc[nH]1 [Azomycin (2-Nitroimidazole)]
Result: 101

Request: Fill in: cell viability of CN(C)C(=O)Oc1ccc[n+](C)c1 [Pyridostigmine Bromide (Mestinon)] is ___
Result: 95.9

* * *

Test system: MARIMO
Assay: cell viability relative to vehicle control; higher = less cytotoxic
Conditions: 10 µM; SRSF2 genotype: SRSF2 wt/wt
Endpoint Label: cell viability

{"Compound": "O=S(=O)(F)Cc1ccccc1 [PMSF (Phenylmethylsulfonyl Fluoride)]", "Result": "99.5%"}
{"Compound": "CN1C(=O)[C@@]23C[C@]4([C@]56C[C@@]78SS[C@@](CO)(C(=O)N7[C@H]5Nc5ccccc56)N(C)C8=O)c5ccccc5N[C@@H]4N2C(=O)[C@]1(CO)SS3", "Result": "0.33%"}
{"Compound": "O=C(O)CNC(=O)c1c(O)c2ccccc2n(Cc2ccccc2)c1=O", "Result": "100%"}

Request: Which cell viability is reported for this compound? C=CC1CN2CCC1CC2C(O)c1ccnc2ccccc12 (stereo not drawn)
Result: 105%

Request: Fill in: cell viability of CC[C@]12C=CCN3CC[C@]4(C(=C(C(=O)OC)C1)Nc1ccccc14)[C@@H]32 [Tabersonine] is ___
Result: 18.7%

Request: Field request: cell viability | item: `COc1ccc2c(c1)/C(=C/c1cnc[nH]1)C(=O)N2`
Result: 39.8%

Request: Which cell viability value is on record for `CCC1=C[C@H]2CN3CCc4c([nH]c5ccccc45)[C@](C(=O)OC)(C2)[C@H]13` ?
Result: 86.6%

Request: I am curious: what cell viability value has been reported for `Cc1cc(C(=O)CN2CCCC2)c(C)n1-c1ccc(F)cc1` ?
Result: 98.2%

* * *

System: OCI-AML2
Assay: cell viability relative to vehicle control; higher = less cytotoxic
Details: 10 µM; SRSF2 genotype: wt/wt
Endpoint Label: cell viability (%)
Value expressed in %; do not type the unit.

{"Compound": "CC(C)=CCCC(C)(O)C1CCC2(C)C1C(O)CC1C3(C)CCC(OC4OC(CO)C(O)C(O)C4O)C(C)(C)C3CCC12C [(20R)Ginsenoside Rh2]", "cell viability (%)": 106}
{"Compound": "O=C(/C=C/c1ccccc1)OC[C@H]1O[C@@H](O[C@@H]2OC=C[C@H]3[C@H](O)[C@@H]4O[C@]4(CO)[C@@H]23)[C@H](O)[C@@H](O)[C@@H]1O [Picroside I]", "cell viability (%)": 100}
{"Compound": "CC1(C)C(=O)N(c2ccc(C#N)c(C(F)(F)F)c2)C(=O)N1CCCCO", "cell viability (%)": 96.6}

Request: May I ask what cell viability has been recorded for CC(C)=CCCC(C)(O)C1CCC2(C)C1C(O)CC1C3(C)CCC(O)C(C)(C)C3C(OC3OC(CO)C(O)C(O)C3O)CC12C [20(S)-Ginsenoside Rh1] ?
Result: 115

Request: # get_value(readout='cell viability', item= CCOC(=O)Nc1ccc(NCc2ccc(F)cc2)cc1N [Retigabine 2HCl] )
Result: 102

* * *

System: MOLM14
Experiment: cell viability relative to vehicle control; higher = less cytotoxic
Conditions: 10 µM; SRSF2 genotype: SRSF2 P95H/wt
Endpoint Label: cell viability (%)
Give just the number in %; leave the unit off.

Request: Given the entry `C[C@@H]1O[C@@H](O[C@H]2C[C@@H](O)[C@]3(CO)[C@H]4[C@H](O)C[C@]5(C)[C@@H](C6=CC(=O)OC6)CC[C@]5(O)[C@@H]4CC[C@]3(O)C2)[C@H](O)[C@H](O)[C@H]1O` , report its measured cell viability.
Result: 3.34

* * *

Test system: K562
Assay: cell viability relative to vehicle control; higher = less cytotoxic
Conditions: 10 µM; SRSF2 genotype: SRSF2 wt/wt
Endpoint Label: cell viability (%)
Return type: number; implicit unit %.

Below are worked cases with known answers.
{"Compound": "CC[C@]12C=CCN3CC[C@]4(C(=C(C(=O)OC)C1)Nc1ccccc14)[C@@H]32", "Readout Number": 30.1}
{"Compound": "Cn1c(COP(=O)(NCCBr)NCCBr)cnc1[N+](=O)[O-]", "Readout Number": 103}
{"Compound": "CCc1c2c(nc3ccccc13)-c1cc3c(c(=O)n1C2)COC(=O)[C@]3(O)CC", "Readout Number": 10.4}
{"Compound": "C=C[C@H]1CN2CC[C@@]3(C(=O)Nc4ccccc43)[C@@H]2C[C@@H]1/C(=C\\OC)C(=O)OC", "Readout Number": 82.3}
{"Compound": "CCCCCCC[n+]1ccc(-c2cc[n+](CCCCCCC)cc2)cc1 [DHBP dibromide]", "Readout Number": 56.3}

Kindly consider the entry below.
Request: Which cell viability is reported for this compound? `Cc1sc2c(c1C)C(c1ccc(Cl)cc1)=N[C@@H](CC(=O)Nc1ccc(O)cc1)c1nnc(C)n1-2`
Result: 71.9

* * *

Parameter cell viability: see the listing below.
System: MARIMO
Assay: cell viability relative to vehicle control; higher = less cytotoxic
Details: 10 µM; SRSF2 genotype: SRSF2 P95H/wt
Counter-ions that a name gives are not always drawn.
The reply should contain only the number, in %.

Look over these answered cases.
{"Compound": "CC(C)OC(=O)[C@H](C)N[P@](=O)(CO[C@H](C)Cn1cnc2c(N)ncnc21)Oc1ccccc1 [Tenofovir Alafenamide (GS-7340)]", "cell viability, %": 93.8}
{"Compound": "C[C@H]1CC[C@@H]2N(C1)C[C@H]1[C@@H]3C[C@H]4[C@@H](CC(=O)[C@H]5C[C@@H](O)CC[C@@]54C)[C@@H]3CC[C@H]1[C@]2(C)O", "cell viability, %": 103}
{"Compound": "CN1C2CCC1CC(O)C2 (stereo not drawn)", "cell viability, %": 104}
{"Compound": "CCN(Cc1ccc(Cl)nc1)/C(=C/[N+](=O)[O-])NC", "cell viability, %": 94.5}
{"Compound": "OC(CNc1ccccc1)Cn1c2ccc(Br)cc2c2cc(Br)ccc21 (stereo not drawn)", "cell viability, %": 85.1}
{"Compound": "COc1ccc(C(=O)N2CCCC2=O)cc1", "cell viability, %": 107}
{"Compound": "C[C@@]12C[C@@H](c3ccoc3)OC(=O)[C@@H]1CC[C@]1(C)[C@H]2[C@@H]2C=C[C@@]1(O)C(=O)O2", "cell viability, %": 99}

Here's the next entry for you.
Request: Recorded cell viability of CCCN1C[C@H](CSC)C[C@@H]2c3cccc4[nH]cc(c34)C[C@H]21 [Pergolide mesylate] , please.
Result: 91.7

* * *

Test system: MARIMO
Assay: cell viability relative to vehicle control; higher = less cytotoxic
Settings: 10 µM; SRSF2 genotype: SRSF2 wt/wt
Endpoint Label: cell viability (%)
Write it as a number; the unit % goes unstated.

Here is how some compounds turned out for cell viability.
{"Compound": "CCc1c2c(nc3ccccc13)-c1cc3c(c(=O)n1C2)COC(=O)[C@]3(O)CC", "Study System": "MARIMO", "Value Units": "%", "Readout Number": 3.52}
{"Compound": "COC(=O)c1ccccc1C(=O)OC [Dimethyl phthalate]", "Study System": "MARIMO", "Value Units": "%", "Readout Number": 93.4}
{"Compound": "C[C@H]1CCC/C=C/[C@@H]2C[C@H](O)C[C@H]2[C@H](O)/C=C/C(=O)O1", "Study System": "MARIMO", "Value Units": "%", "Readout Number": 6.8}

Moving on to the next compound.
Request: Entry COc1cc2c(cc1OC)[C@@H](Cc1ccc(O)c(Oc3cc4c(cc3OC)CCN(C)[C@@H]4Cc3ccc(O)cc3)c1)N(C)CC2.[O-][Cl+3]([O-])([O-])O [Liensinine perchlorate] : reported cell viability = ?
Result: 66.8

Source of measurements: the supplement of paper PMC10981050
